# System: P12-Ichikawa
# Method Summary: cell viability relative to DMSO control; higher = less cytotoxic
# Condition Description: RPMI 5 mM glucose + 10% dialyzed FBS; 48 h; 15.4 µM
Assay Metric: cell viability (%)
// units = %; emit number, no label

CC(C)C[C@H](CN)CC(=O)O 97.9
O=C1NC(=O)[C@@H](c2cn3c4c(cccc24)CCC3)[C@@H]1c1c[nH]c2ccccc12 30

Continue with the next compound.
**Query** Tell me the measured cell viability of `O=C1c2c(O)cccc2[C@H]([C@@H]2O[C@H](CO)[C@@H](O)[C@H](O)[C@H]2O)c2cc(CO)cc(O)c21` , please.
**Result** 99.4

====

# Test system: P12-Ichikawa
# Method Summary: cell viability relative to DMSO control; higher = less cytotoxic
# Condition Description: HPLM + 10% dialyzed FBS; 48 h; 0.0632 µM
Assay Metric: cell viability (%)
// units = %; emit number, no label

Clc1cccc(-c2nnnn2Cc2cccnc2)c1Cl 94.9
C#CCN(C)[C@H](C)Cc1ccccc1 106
O=[N+]([O-])c1cn2c(n1)OC[C@@H](OCc1ccc(OC(F)(F)F)cc1)C2 120
Nc1ccccc1NC(=O)c1ccc(CNc2nccc(-c3cccnc3)n2)cc1 110

Continue with the next molecule.
**Query** Tell me the measured cell viability of `CN1CCCN(C(=O)c2cccc(-c3ccc(/C=C4/C(=O)Nc5ccc(Cl)cc54)o3)c2)CC1` , please.
**Result** 114

====

# System: SEM cells
# Method Summary: cell viability relative to DMSO control; higher = less cytotoxic
# Condition Description: HPLM + 10% dialyzed FBS; 48 h; 0.569 µM
Property: cell viability; scope: individual compounds
// units = %; emit number, no label

// worked examples, cell viability included
Cc1ccc(NC(=O)C2(c3ccc4c(c3)OC(F)(F)O4)CC2)nc1-c1cccc(C(=O)O)c1 16.4
CC(C)(C)OC(=O)CN(Cc1ccc(Cl)cc1)Cc1ccc([N+](=O)[O-])s1 109

**Query** Tell me the measured cell viability of `C[C@H]1CN(C[C@@H](C)O1)CC(=O)NC2=CC=C3SC4=C(CC3=C2)C=CC=C4\C5=C\C(=O)\C=C(/O5)N6CCOCC6` , please.
**Result** 113

====

Property: cell viability; scope: individual molecules
# Tested on: P12-Ichikawa
# Method Summary: cell viability relative to DMSO control; higher = less cytotoxic
# Condition Description: RPMI 5 mM glucose + 10% dialyzed FBS; 48 h; 0.00702 µM
// units = %; emit number, no label

Cl.c1cnc2cc3c(cc2n1)C1CNCC3C1 112
C[C@@H]1C[C@H]2[C@@H]3\C=C(C)/C4=C/C5=C(C[C@]4(C)[C@H]3[C@@H](O)C[C@]2(C)[C@@]1(O)C(=O)COC(C)=O)C=N[N]5C6=CC=CC=C6 91.7

**Query** Tell me the measured cell viability of `CCC(=O)O[C@@]1([C@@H](C)C[C@H]2[C@@H]3CCC/4=C/C(=O)/C=C\[C@]4(C)[C@@]3(F)[C@@H](O)C[C@]12C)C(=O)CCl` , please.
**Result** 83.8

**Query** Tell me the measured cell viability of `O=C(NC1CCNCC1)c1n[nH]cc1NC(=O)c1c(Cl)cccc1Cl` , please.
**Result** 109
